# Tested on: UACC-62 melanoma
# measurementNotes: NCI tumour cell line growth inhibition, 48 h; in the data active = GI50 below about 0.43 µM; inactive = the rest
Returns: one label drawn from active, inactive

Exercise: Any idea what this test logged for "CCOC(=O)[C@@H](N)CCC(=O)N[C@@H](CSCc1ccccc1)C(=O)N[C@@H](C(=O)OCC)c1ccccc1" ?
Solution: inactive

Exercise: Any idea what this test logged for CCCCC(O)(c1ccc(Cl)cc1)C(CN1CCOCC1)c1ccc(Cl)cc1 (stereo not drawn) ?
Solution: inactive

Exercise: Any idea what this test logged for "O=C(NC1=CC(=O)c2ccccc2C1=O)c1ccccc1" ?
Solution: active

* * *

Field: TGI. Provide a value for each of the compounds that follow.
# Test system: A549 NSCLC
# measurementNotes: NCI tumour cell line growth inhibition, 48 h

Exercise: What TGI appears in the records for this compound with A549 NSCLC? "Cn1cc(NC(=O)c2cc(NC(=O)CN=C(N)N)cn2C)cc1C(=O)NCCC(=N)N"
Solution: > 100 µM

Exercise: What TGI appears in the records for this compound with A549 NSCLC? "N#CCN1C(=O)c2cccc3cc([N+](=O)[O-])cc(c23)C1=O"
Solution: > 100 µM

Exercise: What TGI appears in the records for this compound with A549 NSCLC? CN1c2ccc(Cl)cc2C(=O)NC1c1ccc([N+](=O)[O-])s1 (stereo not drawn)
Solution: 92 µM

Exercise: What TGI appears in the records for this compound with A549 NSCLC? Cn1c2c(c3ccccc31)CC1c3c(c4ccccc4n3C)CC21 (stereo not drawn)
Solution: > 100 µM

Exercise: What TGI appears in the records for this compound with A549 NSCLC? Cc1cn(C2CC(O)C(CO)O2)c(=O)n2nnnc12 (stereo not drawn)
Solution: > 100 µM

Exercise: What TGI appears in the records for this compound with A549 NSCLC? "COc1cc(C=C2C(=O)NC(=O)NC2=O)cc(OC)c1OC"
Solution: > 100 µM

Exercise: What TGI appears in the records for this compound with A549 NSCLC? "CCOC(=O)N/N=C(/N)c1cccc([N+](=O)[O-])c1"
Solution: > 100 µM

Exercise: What TGI appears in the records for this compound with A549 NSCLC? Cc1cc(Cl)ccc1N=C1NC(=O)C(CC(=O)Nc2ccc([N+](=O)[O-])cc2[N+](=O)[O-])S1 (stereo not drawn)
Solution: 85.9 µM

Exercise: What TGI appears in the records for this compound with A549 NSCLC? "CC(C)n1nc(-c2cc3cc(O)ccc3[nH]2)c2c(N)ncnc21"
Solution: 2.67 µM

Exercise: What TGI appears in the records for this compound with A549 NSCLC? CCCCN1C(=O)N(c2ccc(OCC)cc2)C2N(CCCC)C1C(C)(C)C2(C)C (stereo not drawn)
Solution: > 100 µM

Exercise: What TGI appears in the records for this compound with A549 NSCLC? "CCN(CC)C(=O)Cn1c(C)cc2ccccc21"
Solution: > 100 µM

Exercise: What TGI appears in the records for this compound with A549 NSCLC? "COc1cc(C(=O)N(Cc2cccnc2)C(=S)N(Cc2cccnc2)C(=O)c2cc(OC)c(OC)c(OC)c2)cc(OC)c1OC"
Solution: > 100 µM

Exercise: What TGI appears in the records for this compound with A549 NSCLC? NC(N)=N/N=C(\c1nc2ccc([N+](=O)[O-])cc2[nH]c1=O)C(O)c1ccc([N+](=O)[O-])cc1 (stereo not drawn)
Solution: > 100 µM

* * *

Field: TGI. Provide a value for each of the compounds that follow.
# Test system: A498 renal
# measurementNotes: NCI tumour cell line growth inhibition, 48 h

Exercise: What does the record list as TGI for O=C1C(CN2CCCCC2)CCC1CN1CCCCC1 (centres undefined) ?
Solution: 29.2 µM

Exercise: What does the record list as TGI for CN1c2ccc(Cl)cc2C(=O)NC1c1ccc([N+](=O)[O-])s1 (centres undefined) ?
Solution: 32.8 µM

Exercise: What does the record list as TGI for CC(=O)OCC12C(=O)C[C@@H](C)C3(CC(c4ccoc4)OC3=O)C1CCC(OC(C)=O)C21CO1 (some centres undefined) ?
Solution: > 100 µM

Exercise: What does the record list as TGI for CC(C)=CCC/C(C)=C/C=C/C(C)=C/C=C/C(C)=C/C=C/C=C(C)/C=C/C=C(C)/C=C/[C@H]1C(C(C)(C)O)CC[C@]1(C)O (some centres undefined) ?
Solution: 84.8 µM

* * *

# Tested on: IGROV1 ovarian
# measurementNotes: NCI tumour cell line growth inhibition, 48 h
quantity: TGI

Exercise: What does the record list as TGI for "O=Cc1ccc(OCc2cccc(COc3ccc(/C=N\Nc4ccc([N+](=O)[O-])cc4[N+](=O)[O-])cc3)n2)cc1" ?
Solution: > 100 µM

Exercise: What does the record list as TGI for NP(=O)(Oc1c2occc2cc2ccc(=O)oc12)N(CCCl)CCCl (centres undefined) ?
Solution: > 100 µM

Exercise: What does the record list as TGI for "O=C(NI1OC(=O)c2ccccc21)c1ccc(Cl)cc1" ?
Solution: > 100 µM

Exercise: What does the record list as TGI for "CN1CCN(CCCOc2ccc3nc(Nc4ccc(Cl)c(C(F)(F)F)c4)ccc3c2)CC1" ?
Solution: 30.1 µM

Exercise: What does the record list as TGI for C=CCCN1CCc2c([nH]c3ccccc23)C1C(=O)O (centres undefined) ?
Solution: > 100 µM

Exercise: What does the record list as TGI for "COc1cc(/C=C(\C#N)C(N)=O)cc(Br)c1O" ?
Solution: > 100 µM

Exercise: What does the record list as TGI for O=C1C(CN2CCCCC2)CCC1CN1CCCCC1 (centres undefined) ?
Solution: 49.7 µM

Exercise: What does the record list as TGI for "C(=Nc1ccc(-c2nc3ccccc3[nH]2)cc1)c1cccs1" ?
Solution: > 100 µM

Exercise: What does the record list as TGI for "O=C(NC1=CC(=O)c2ccccc2C1=O)c1ccccc1" ?
Solution: 2.85 µM

Exercise: What does the record list as TGI for "COc1ccccc1/C=C1\SC(=S)N(/C=C2\C(=O)Oc3ccccc3C2=O)C1=O" ?
Solution: > 100 µM

Exercise: What does the record list as TGI for "O=c1[nH]nc(-c2ccccc2)c2[nH]c3c4ccccc4ccc3c12" ?
Solution: > 100 µM

Exercise: What does the record list as TGI for CC1(C)NC2C(=O)c3c([nH]c4ccccc34)[C@]3(C)CCC1CC23 (some centres undefined) ?
Solution: > 100 µM

Exercise: What does the record list as TGI for "CCOC(=O)C(=Cc1[nH]c2ccccc2c1-c1c[nH]c2ccccc12)C(=O)OCC" ?
Solution: 24.8 µM

Exercise: What does the record list as TGI for CC(C)(C)OC(=O)NC(Cc1ccc(OCc2ccccc2)cn1)C(=O)N1CCCCC1 (centres undefined) ?
Solution: > 100 µM

Exercise: What does the record list as TGI for "CC(C)[Si](OC1=C(C(=O)N(C)c2cccc(Cl)c2)CCCC1)(C(C)C)C(C)C" ?
Solution: 32.3 µM

Exercise: What does the record list as TGI for O=C1CC(=Nc2ccc(Cl)cc2)C(c2ccccc2)N1c1ccccc1 (centres undefined) ?
Solution: > 100 µM

Exercise: What does the record list as TGI for "CC1(C)C(=O)N(CCCCCCN2C(=O)C(C)(C)c3ccccc32)c2ccccc21" ?
Solution: > 100 µM

Exercise: What does the record list as TGI for COC(C(O)CO)C(O)C(O)C(=O)NNc1ccccc1 (centres undefined) ?
Solution: > 100 µM

Exercise: What does the record list as TGI for "CC(C)(C)c1cc(Br)c(O)c(CN(Cc2cc(C(C)(C)C)cc(Br)c2O)C2CCCCC2)c1" ?
Solution: 28.7 µM

* * *

# Test system: TK-10 renal
# measurementNotes: NCI tumour cell line growth inhibition, 48 h
Where a SMILES comes first, the peptide text is derived from it. [ ]: non-standard residue; d: D form. The star is where a group is joined. NMeF = CN[CH](Cc1ccccc1)C(=O)O; NMeV = CN[CH](C(=O)O)C(C)C; Boc = CC(C)(C)OC(=O)*
quantity: TGI

Exercise: What TGI appears in the records for this molecule with TK-10 renal? "NC(N)=N/N=C/c1c[nH]c2ccccc12"
Solution: > 100 µM

Exercise: What TGI appears in the records for this molecule with TK-10 renal? COc1cc(C2C(Cl)C(=O)N2NC(=O)c2ccc(NC(C)=O)cc2)cc(OC)c1OC (stereo not drawn)
Solution: > 100 µM

Exercise: What TGI appears in the records for this molecule with TK-10 renal? "O=C1CCC(c2ccc(Cl)cc2)=NN1c1nsc2ccccc12"
Solution: > 100 µM

Exercise: What TGI appears in the records for this molecule with TK-10 renal? "COc1cccc(-c2ccc3c4c2O[C@H]2C(=O)CC[C@@]5(O)[C@@H](C3)N(CC3CC3)CC[C@]425)c1"
Solution: 32.2 µM

Exercise: What TGI appears in the records for this molecule with TK-10 renal? CC(C)C(NC(=O)OC(C)(C)C)C(=O)N(C)C(Cc1ccccc1)C(=O)N(C)C(C(=O)O)C(C)C (stereo not drawn) (Boc-Val-[NMeF]-[NMeV]-OH; configuration not given here)
Solution: > 100 µM

Exercise: What TGI appears in the records for this molecule with TK-10 renal? COc1cccc2c1C(=O)c1c(O)c3c(c(O)c1C2=O)C[C@@](O)(C(C)=O)C[C@@H]3OC1OC(C)C(O)C(N)C1Br (stereo partly drawn)
Solution: 0.407 µM

Exercise: What TGI appears in the records for this molecule with TK-10 renal? "Oc1ccc(-c2nc(-c3cccnc3)c(-c3ccc(Cl)cc3)[nH]2)cc1"
Solution: 26.3 µM

Exercise: What TGI appears in the records for this molecule with TK-10 renal? Cc1ccc2c(c1)C(C(=O)N[C@@H]1C(=O)N3[C@@H]1SC(C)(C)[C@@H]3C(=O)O)OCCC2 (stereo partly drawn)
Solution: > 100 µM

Exercise: What TGI appears in the records for this molecule with TK-10 renal? "Cc1ccc(-c2c(C#N)c(-c3ccc(Cl)cc3)c(C#N)c(=O)n2NS(=O)(=O)c2ccc(C)cc2)cc1"
Solution: > 100 µM

Exercise: What TGI appears in the records for this molecule with TK-10 renal? "Cc1c(S(=O)(=O)/N=C(\NO)Nc2ccc(Cl)c(Cl)c2)sc2ccc(Cl)cc12"
Solution: 34.4 µM

Exercise: What TGI appears in the records for this molecule with TK-10 renal? "COc1cc2ncnc(Nc3ccc(C)c(O)c3)c2cc1OC"
Solution: 12 µM

Exercise: What TGI appears in the records for this molecule with TK-10 renal? "CN1C(=O)c2cccc3cc([N+](=O)[O-])cc(c23)C1=O"
Solution: > 10 µM

Exercise: What TGI appears in the records for this molecule with TK-10 renal? "CCOC(=O)/C=C(/C(=O)OCC)n1ccc(=O)n(Cc2cn(COCCOC(C)=O)nn2)c1=O"
Solution: 32 µM

The origin of these recorded values is PubChem BioAssay (NCI).
